Where do the numbers come from? From ChEMBL document CHEMBL4325864.

Biological target: PRMT5/MEP50 complex (Homo sapiens, UniProt O14744)
Sequence (O14744 whole entry): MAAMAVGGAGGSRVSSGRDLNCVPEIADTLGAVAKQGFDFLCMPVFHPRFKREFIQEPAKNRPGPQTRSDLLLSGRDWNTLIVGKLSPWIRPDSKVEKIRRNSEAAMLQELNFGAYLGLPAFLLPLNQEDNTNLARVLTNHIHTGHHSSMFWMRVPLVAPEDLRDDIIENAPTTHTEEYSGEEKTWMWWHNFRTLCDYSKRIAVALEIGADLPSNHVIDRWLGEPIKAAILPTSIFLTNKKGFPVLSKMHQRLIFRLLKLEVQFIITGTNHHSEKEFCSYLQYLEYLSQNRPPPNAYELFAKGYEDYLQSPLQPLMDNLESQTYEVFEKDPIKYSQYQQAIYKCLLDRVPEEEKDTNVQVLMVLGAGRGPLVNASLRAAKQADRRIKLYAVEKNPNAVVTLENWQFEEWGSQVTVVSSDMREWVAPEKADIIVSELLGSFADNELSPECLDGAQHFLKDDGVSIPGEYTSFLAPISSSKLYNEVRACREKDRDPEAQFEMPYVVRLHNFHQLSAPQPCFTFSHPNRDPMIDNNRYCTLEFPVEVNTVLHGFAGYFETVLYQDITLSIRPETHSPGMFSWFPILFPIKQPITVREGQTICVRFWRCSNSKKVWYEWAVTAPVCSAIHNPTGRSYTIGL
Sequence (Q9BQA1 whole entry, further chain): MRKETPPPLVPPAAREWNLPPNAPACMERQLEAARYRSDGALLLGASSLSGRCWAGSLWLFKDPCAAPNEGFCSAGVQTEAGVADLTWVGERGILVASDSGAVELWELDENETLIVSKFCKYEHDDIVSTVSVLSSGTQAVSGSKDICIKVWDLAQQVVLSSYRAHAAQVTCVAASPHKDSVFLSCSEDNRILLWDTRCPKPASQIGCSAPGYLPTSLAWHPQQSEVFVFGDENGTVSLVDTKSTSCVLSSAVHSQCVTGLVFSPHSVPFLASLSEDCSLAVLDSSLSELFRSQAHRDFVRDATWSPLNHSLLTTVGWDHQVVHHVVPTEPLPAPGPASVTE
Experiment: Inhibition of recombinant human N-terminal FLAG-tagged PRMT5 (2 to end residues) /human N-terminal His-tagged MEP50 (2 to end residues) expressed in HEK293F cells pretreated for 15 mins followed by substrate and [3H]-SAM addition measured after 60 mins by scintillation proximity assay
Type: cell-based
Observable: pIC50
Note: pIC50 values are expressed as the negative base-10 logarithm of concentration in M.

Mol	Tested system	pIC50
O=C(CCN1CCc2ccccc2C1)Nc1cccc(OC(F)(F)F)c1	PRMT5/MEP50 complex (Homo sapiens, UniProt O14744)	4.20

Ask: Which value of pIC50 has been reported for `COC(=O)c1ccccc1NC(=O)CCCN1CCc2ccccc2C1` in the records?
Result: 4.06

Ask: Which value of pIC50 has been reported for `COC(=O)c1ccccc1NC(=O)CN1CCc2ccccc2C1` in the records?
Result: 4.22

Ask: Which value of pIC50 has been reported for `O=C(CCN1CCc2ccccc2C1)NNC(=O)c1ccccc1` in the records?
Result: 4.14

Ask: Which value of pIC50 has been reported for `COC(=O)c1ccccc1NC(=O)CCN1CCc2ccccc2C1` in the records?
Result: 4.50

Ask: Which value of pIC50 has been reported for `N#Cc1ccccc1NC(=O)CCN1CCc2ccccc2C1` in the records?
Result: 4.59

Ask: Which value of pIC50 has been reported for `O=C(CCN1CCc2ccccc2C1)Nc1cccc(Br)c1` in the records?
Result: 4.74

Ask: Which value of pIC50 has been reported for `O=C(CCN1CCc2ccccc2C1)Nc1cccc(Cl)c1` in the records?
Result: 4.38

Ask: Which value of pIC50 has been reported for `O=C(CCN1CCc2ccccc2C1)Nc1nccc(C(F)(F)F)n1` in the records?
Result: 4.16

Ask: Which value of pIC50 has been reported for `N#Cc1c(Br)cccc1NC(=O)CCN1CCc2ccccc2C1` in the records?
Result: 5.57

Ask: Which value of pIC50 has been reported for `CC(=O)c1cccc(NC(=O)CCN2CCc3ccccc3C2)c1` in the records?
Result: 4.28

Ask: Which value of pIC50 has been reported for `O=C(CCN1CCc2ccccc2C1)Nc1cccc(F)c1` in the records?
Result: 4.34

* * *

Molecular target: Protein arginine N-methyltransferase 1 (Homo sapiens)
Sequence (Q99873 whole entry): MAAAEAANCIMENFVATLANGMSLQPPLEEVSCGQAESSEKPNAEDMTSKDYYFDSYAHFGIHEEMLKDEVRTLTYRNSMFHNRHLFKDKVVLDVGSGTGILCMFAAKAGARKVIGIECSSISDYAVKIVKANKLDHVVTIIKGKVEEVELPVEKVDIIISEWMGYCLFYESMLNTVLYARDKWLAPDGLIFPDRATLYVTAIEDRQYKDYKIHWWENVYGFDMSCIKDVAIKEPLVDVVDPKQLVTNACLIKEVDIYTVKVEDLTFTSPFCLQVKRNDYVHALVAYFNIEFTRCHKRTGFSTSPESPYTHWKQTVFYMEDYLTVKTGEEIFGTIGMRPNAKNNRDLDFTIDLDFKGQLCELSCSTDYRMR
pIC50: −log10 of the molar value.
Observable: pIC50

Ask: Short answer please: pIC50, Protein arginine N-methyltransferase 1 (Homo sapiens), entry `N#Cc1c(Br)cccc1NC(=O)CCN1CCc2ccccc2C1`
Result: < 3.70

* * *

Biological target: Protein arginine N-methyltransferase 5 (Homo sapiens)
Assay: Inhibition of PRMT5 (unknown origin)
Observable: IC50 (nM)
// return numeric value only (unit: nM, not printed)

Ask: Short answer please: IC50, Protein arginine N-methyltransferase 5 (Homo sapiens), entry `O=C(NC[C@H]1C[C@@H]2CC[N@@]1C[C@@H]2CN1CCC(Cc2ccccc2)CC1)c1ccc2c(c1)OCO2`
Result: 1500

* * *

Listing of recorded pIC50 by entry.
Target: Protein arginine N-methyltransferase 5 (Homo sapiens, UniProt O14744)
Sequence (O14744 whole entry, the tested form may be a part): as the sequence (O14744 whole entry) above
Assay: Inhibition of full-length N-terminal FLAG-tagged PRMT5 (unknown origin) (1 to 637 residues) expressed in baculovirus infected Sf9 insect cells using histone H4 as peptide after 5 hrs in presence of [H3]AdoMet by scintillation proximity assay
Note: pIC50 values are expressed as the negative base-10 logarithm of concentration in M.

Mol	Tested system	pIC50
Nc1ncnc2c1ncn2[C@@H]1O[C@H](C[C@@H](N)CC[C@H](N)C(=O)O)[C@@H](O)[C@H]1O	Protein arginine N-methyltransferase 5 (Homo sapiens, UniProt O14744)	5.07

Ask: Which value of pIC50 has been reported for `Nc1ncnc2c1ncn2[C@@H]1O/C(=C\[C@@H](N)CC[C@H](N)C(=O)O)[C@@H](O)[C@H]1O` in the records?
Result: 7.46
